Entry source: patent EP4786492A1

The binders listed here are annotated with their MFI.
Target of assay: monkey DLL3 on CHO-K1-cyno DLL3 cells (cynomolgus monkey)
Sequence (chain, as listed by the source limits assumed): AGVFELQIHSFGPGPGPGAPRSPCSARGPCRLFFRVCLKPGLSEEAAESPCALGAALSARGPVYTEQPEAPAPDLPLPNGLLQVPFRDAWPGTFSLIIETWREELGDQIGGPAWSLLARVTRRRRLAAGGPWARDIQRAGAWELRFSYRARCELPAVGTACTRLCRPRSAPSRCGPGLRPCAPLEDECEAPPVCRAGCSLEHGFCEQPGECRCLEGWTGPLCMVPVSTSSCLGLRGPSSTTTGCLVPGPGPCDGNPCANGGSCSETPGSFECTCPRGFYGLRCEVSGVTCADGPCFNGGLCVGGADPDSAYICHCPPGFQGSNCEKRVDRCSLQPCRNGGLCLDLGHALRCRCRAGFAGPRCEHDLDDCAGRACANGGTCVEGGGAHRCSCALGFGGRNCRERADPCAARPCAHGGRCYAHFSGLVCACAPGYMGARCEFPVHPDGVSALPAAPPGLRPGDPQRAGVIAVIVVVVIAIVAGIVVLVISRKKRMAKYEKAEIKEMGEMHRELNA
Assay text: FACS, CHO-K1-cyno DLL3 cells, 0.16 nM antibody
Assay readout: MFI (MFI)

>>> observed_value("Hab014VL1VH2-hFc (scFv, part only; not given: VL-VH linker and human IgG1 Fc, V domains shown, not shown: another chain or arm of the molecule; a dimerising Fc or GST; small tags and cut ends) VL: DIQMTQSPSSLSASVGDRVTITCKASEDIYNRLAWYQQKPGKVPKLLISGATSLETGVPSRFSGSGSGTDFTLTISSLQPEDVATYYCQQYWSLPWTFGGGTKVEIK VH: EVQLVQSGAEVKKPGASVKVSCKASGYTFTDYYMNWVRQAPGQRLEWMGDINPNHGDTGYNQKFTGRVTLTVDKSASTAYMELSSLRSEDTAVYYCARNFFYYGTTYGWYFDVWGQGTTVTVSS")
2190
>>> observed_value("Hab015VL4VH6a-hFc (scFv, part only; not given: scFv linker and human IgG1 Fc, V domains shown, not shown: another chain or arm of the molecule; a dimerising Fc or GST; small tags and cut ends) VL: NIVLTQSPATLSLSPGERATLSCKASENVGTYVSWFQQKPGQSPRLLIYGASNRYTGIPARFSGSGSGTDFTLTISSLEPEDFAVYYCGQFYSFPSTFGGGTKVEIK VH: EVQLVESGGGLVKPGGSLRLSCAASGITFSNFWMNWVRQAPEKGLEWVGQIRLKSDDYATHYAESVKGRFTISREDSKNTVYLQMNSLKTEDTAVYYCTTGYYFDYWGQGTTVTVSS")
1150
>>> observed_value("Hab014VL2VH1-hFc (scFv, part only; not given: scFv linker and human IgG1 Fc, V domains shown, not shown: another chain or arm of the molecule; a dimerising Fc or GST; small tags and cut ends) VL: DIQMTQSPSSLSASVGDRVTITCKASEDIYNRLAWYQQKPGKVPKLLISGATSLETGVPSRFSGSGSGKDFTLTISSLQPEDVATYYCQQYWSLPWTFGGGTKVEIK VH: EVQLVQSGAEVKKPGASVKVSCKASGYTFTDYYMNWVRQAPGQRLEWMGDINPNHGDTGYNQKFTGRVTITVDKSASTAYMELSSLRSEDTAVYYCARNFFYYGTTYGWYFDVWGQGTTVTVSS")
1670
>>> observed_value("Hab008L3H2a-hFc (scFv, part only; not given: VL-VH linker and human IgG1 Fc, V domains shown, not shown: another chain or arm of the molecule; a dimerising Fc or GST; small tags and cut ends) VL: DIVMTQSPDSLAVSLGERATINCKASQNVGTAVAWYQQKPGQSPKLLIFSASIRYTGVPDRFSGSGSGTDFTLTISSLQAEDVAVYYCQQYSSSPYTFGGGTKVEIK VH: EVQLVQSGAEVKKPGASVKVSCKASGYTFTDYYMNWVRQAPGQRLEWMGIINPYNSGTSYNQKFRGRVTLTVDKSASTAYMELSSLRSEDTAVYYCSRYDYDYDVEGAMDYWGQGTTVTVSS")
928
>>> observed_value("Hab008L1H2a-hFc (scFv, part only; not given: VL-VH linker and human IgG1 Fc, V domains shown, not shown: another chain or arm of the molecule; a dimerising Fc or GST; small tags and cut ends) VL: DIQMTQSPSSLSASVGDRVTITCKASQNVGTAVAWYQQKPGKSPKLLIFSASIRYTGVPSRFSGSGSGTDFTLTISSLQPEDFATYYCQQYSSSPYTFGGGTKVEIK VH: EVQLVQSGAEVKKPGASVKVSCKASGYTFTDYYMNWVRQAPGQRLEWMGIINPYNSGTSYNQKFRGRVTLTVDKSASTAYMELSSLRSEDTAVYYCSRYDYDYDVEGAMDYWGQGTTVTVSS")
1540
>>> observed_value("Hab014VL3VH1-hFc (scFv, part only; not given: VL-VH linker and human IgG1 Fc, V domains shown, not shown: another chain or arm of the molecule; a dimerising Fc or GST; small tags and cut ends) VL: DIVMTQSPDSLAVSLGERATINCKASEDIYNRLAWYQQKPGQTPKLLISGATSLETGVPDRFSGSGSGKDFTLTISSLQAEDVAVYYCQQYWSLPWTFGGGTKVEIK VH: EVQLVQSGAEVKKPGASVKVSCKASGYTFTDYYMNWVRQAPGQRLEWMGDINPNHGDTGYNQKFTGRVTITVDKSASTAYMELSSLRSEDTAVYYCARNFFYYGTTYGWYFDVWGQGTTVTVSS")
1730
>>> observed_value("Hab009VL1aVH1-hFc (scFv, part only; not given: scFv linker and human IgG1 Fc, V domains shown, not shown: another chain or arm of the molecule; a dimerising Fc or GST; small tags and cut ends) VL: DIVMTQSPLSLPVTPGEPASISCRASQTISDYLHWYLQKPGQSPQLLIKYASQSISGVPDRFSGSGSGSDFTLKISRVEAEDVGVYYCQQGHSFPLTFGQGTKLEIK VH: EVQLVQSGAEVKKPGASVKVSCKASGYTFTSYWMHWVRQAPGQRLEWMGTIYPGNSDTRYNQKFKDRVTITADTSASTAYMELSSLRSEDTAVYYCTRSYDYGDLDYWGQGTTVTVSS")
1640
